test: Apparent volume of distribution in mouse at 2 mg/kg, iv by LC-MS analysis; format: ADME, organism-based; settings: in vivo, read-out: Vz
measure: Vd (L/kg)
Please give a number only; it is taken to be in L/kg.

compound: C[C@H](NC(=O)[C@H]1CNC[C@@H]1c1ccc(C(F)(F)F)cc1)c1ccc(N(C)C)cc1
Vd, L/kg: 1.3

Proceed to the following item.
Which Vd value is on record for CN(C)c1ccc(CNC(=O)[C@H]2CNC[C@@H]2c2ccc(C(F)(F)F)nc2)cc1 (racemic) ?
3.2

====

The entries below are paired with their reported clearance.
test: Apparent clearance in mouse at 2 mg/kg, iv by LC-MS analysis; format: ADME, organism-based; conditions: in vivo, read-out: CL(app)
Please give a number only; it is taken to be in L/h/kg.

molecule: C[C@H](NC(=O)[C@H]1CNC[C@@H]1c1ccc(C(F)(F)F)cc1)c1ccc(N(C)C)cc1
clearance / L/h/kg: 0.198

Proceed to the following item.
Which clearance value is on record for CN(C)c1ccc(CNC(=O)[C@H]2CNC[C@@H]2c2ccc(C(F)(F)F)nc2)cc1 (racemic) ?
0.354

====

assay: Half life in mouse at 2 mg/kg, iv by LC-MS analysis; assay type: ADME, organism-based; details: in vivo
measure: half-life (h)
Please give a number only; it is taken to be in h.

molecule: CN(C)c1ccc(CNC(=O)[C@H]2CNC[C@@H]2c2ccc(C(F)(F)F)nc2)cc1 (racemic)
result value: 6.6

Which half-life value is on record for C[C@H](NC(=O)[C@H]1CNC[C@@H]1c1ccc(C(F)(F)F)cc1)c1ccc(N(C)C)cc1 ?
4.4

====

assay: Apparent volume of distribution in mouse at 1 mg/kg, iv by LC-MS analysis; format: ADME, organism-based; details: in vivo, read-out: Vz
measure: Vd
Report the figure along with its unit, number first.

Which Vd value is on record for Cc1ccc(CNC(=O)[C@@H]2CNC[C@H]2c2ccc(C(F)(F)F)cc2)cc1 (racemic) ?
7.3 L/kg

====

The entries below are paired with their reported Intrinsic clearance (CLint).
assay: Intrinsic clearance in mouse liver microsomes at 1 uM measured after 30 mins in presence of NADPH by LC-MS/MS analysis; assay type: ADME, Microsome; conditions: 0.5 h

Some solved entries appear below for comparison.
compound: CN(C)c1ccc(CNC(=O)[C@H]2CNC[C@@H]2c2ccc(C(F)(F)F)nc2)cc1 (racemic)
measure: Intrinsic clearance (CLint)
result value: 3.1 µL/min/mg

compound: CN(C)c1ccc(CNC(=O)[C@H]2CNC[C@@H]2c2ccc(C(F)(F)F)cc2)cc1 (racemic)
measure: Intrinsic clearance (CLint)
result value: 6.2 µL/min/mg

compound: CN(C)c1ccc(CNC(=O)[C@@H]2CNC[C@H]2c2ccc(Oc3ccccc3)cc2)cc1 (racemic)
measure: Intrinsic clearance (CLint)
result value: 7.2 µL/min/mg

compound: CN(C)c1ccc(CNC(=O)[C@@H]2CNC[C@H]2c2ccc(C(F)(F)F)c(Cl)c2)cc1 (racemic)
measure: Intrinsic clearance (CLint)
result value: 6.7 µL/min/mg

compound: Cc1ccc(CNC(=O)[C@@H]2CNC[C@H]2c2ccc(C(F)(F)F)cc2)cc1 (racemic)
measure: Intrinsic clearance (CLint)
result value: 1.4 µL/min/mg

Proceed to the following item.
Which Intrinsic clearance (CLint) value is on record for CN(C)c1ccc(CNC(=O)[C@@H]2CNC[C@H]2c2ccc(C(F)(F)F)c(F)c2)cc1 (racemic) ?
6.4 µL/min/mg
